# Target Or Test System: Full length (FL) 3-Phosphoglycerate Dehydrogenase (PHGDH) (Homo sapiens, UniProt O43175)
# Construct: Full length (FL) 3-Phosphoglycerate Dehydrogenase (PHGDH) Diaphorase coupled assay (500 uM NAD)
# Sequence (O43175 1-533): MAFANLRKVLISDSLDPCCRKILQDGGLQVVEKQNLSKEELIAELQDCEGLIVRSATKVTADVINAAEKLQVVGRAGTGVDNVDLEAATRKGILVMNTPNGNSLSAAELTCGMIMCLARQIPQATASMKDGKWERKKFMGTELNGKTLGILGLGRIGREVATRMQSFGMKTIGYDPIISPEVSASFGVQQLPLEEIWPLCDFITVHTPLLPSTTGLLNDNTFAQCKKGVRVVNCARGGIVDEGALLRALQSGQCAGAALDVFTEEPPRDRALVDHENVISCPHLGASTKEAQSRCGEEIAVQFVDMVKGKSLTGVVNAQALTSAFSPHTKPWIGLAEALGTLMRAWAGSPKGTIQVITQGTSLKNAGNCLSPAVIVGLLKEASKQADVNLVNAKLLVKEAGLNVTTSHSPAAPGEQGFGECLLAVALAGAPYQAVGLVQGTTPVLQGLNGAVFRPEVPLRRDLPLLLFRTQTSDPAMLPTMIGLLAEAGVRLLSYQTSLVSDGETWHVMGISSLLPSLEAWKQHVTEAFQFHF
# Method: Full length (FL) PHGDH Diaphorase coupled assay (500 uM NAD)
# Type: biochemical
# Test Parameters: full-length PHGDH 5 nM, 30° C. 60 minutes, resorufin fluorescence
pIC50: −log10 of the molar value.
Property Measured: pIC50

Previously resolved entries follow.
| Molecule | pIC50 |
| --- | --- |
| Cn1c(C(=O)NC2(c3ccc(C(=O)O)cc3Cl)COC2)cc2c(Cl)c(Cl)ccc21 | 6.00 to 9.00 |
| CCC(C(=O)O)c1ccc(C2(NC(=O)c3cc4c(Cl)c(Cl)ccc4n3C)CCOC2)cc1 (racemic) | 6.00 to 9.00 |
| CCOc1cc2c(cc(C(=O)NC3(c4ccc(C(=O)O)cc4)CCOC3)n2C)c(Cl)c1Cl (racemic) | 6.00 to 9.00 |
| Cn1c(C(=O)NC2(c3ccc(C(=O)O)cc3)CCOC2)cc2c(Cl)c(C3CC3)ccc21 (racemic) | 6.00 to 9.00 |
| Cn1c(C(=O)NC2(c3ccc(CC(=O)O)cc3F)COC2)cc2c(Cl)c(Cl)ccc21 | 6.00 to 9.00 |

Return reported pIC50 values for all items listed beneath this line.
1. COc1cc2c(cc(C(=O)NC3(c4ccc(C(=O)O)cc4F)COC3)n2C)c(Cl)c1C
2. COc1ccc2c(cc(C(=O)NC3(c4ccc(C(C(=O)O)C5CCC(O)CC5)cc4)COC3)n2C)c1Cl (racemic)

Output line:
1. 6.00 to 9.00
2. 6.00 to 9.00

---

Could you please report measured IC50 for the items listed next?
# Target Or Test System: Full length (FL) 3-Phosphoglycerate Dehydrogenase (PHGDH) (Homo sapiens)
# Construct: Full length (FL) 3-Phosphoglycerate Dehydrogenase (PHGDH) Diaphorase coupled assay (500 uM NAD)
# Sequence (O43175 1-533): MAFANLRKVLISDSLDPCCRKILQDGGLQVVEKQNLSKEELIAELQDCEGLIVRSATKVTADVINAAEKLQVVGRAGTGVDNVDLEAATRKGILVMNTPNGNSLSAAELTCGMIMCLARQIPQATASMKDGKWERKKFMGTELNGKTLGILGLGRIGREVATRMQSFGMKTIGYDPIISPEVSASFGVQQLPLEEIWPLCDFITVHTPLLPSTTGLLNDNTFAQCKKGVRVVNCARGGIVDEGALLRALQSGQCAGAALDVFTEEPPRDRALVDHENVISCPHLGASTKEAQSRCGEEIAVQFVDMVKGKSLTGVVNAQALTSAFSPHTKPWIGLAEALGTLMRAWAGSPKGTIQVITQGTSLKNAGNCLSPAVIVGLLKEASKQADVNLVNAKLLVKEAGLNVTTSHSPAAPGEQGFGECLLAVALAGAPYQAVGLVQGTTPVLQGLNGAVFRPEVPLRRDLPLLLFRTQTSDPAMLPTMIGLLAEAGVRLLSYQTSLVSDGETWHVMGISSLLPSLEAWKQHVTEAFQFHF
# Method: Full length (FL) PHGDH Diaphorase coupled assay (500 uM NAD)
# Assay type: biochemical
# Test Parameters: full-length PHGDH 5 nM, 30° C. 60 minutes, resorufin fluorescence

Known IC50 results, listed for orientation:
| Compound | Value |
| --- | --- |
| CC(C(=O)O)c1ccc(C2(NC(=O)c3cc4c(Cl)c(Cl)ccc4n3C)COC2)c(Cl)c1 (stereo not shown) | 1 to 1000 nM |
| Cn1c(C(=O)NC2(c3ccc(C(=O)O)cc3)CCOC2)cc2c(Cl)cc(OCC3CNC(=O)O3)cc21 (racemic) | 1000 to 5000 nM |
| C[C@H](C(=O)O)c1ccc(C2(NC(=O)c3cc4c(Cl)c(Cl)ccc4n3C)COC2)cc1 (single isomer, unassigned) [I-35 or I-34 e160 peak 1] | 1 to 1000 nM |
| CN1CC(COc2cc3c(cc(C(=O)NC4(c5ccc(C(=O)O)cc5)CCOC4)n3C)c(Cl)c2Cl)CC1=O (racemic) | 1 to 1000 nM |
| CC(c1ccc(C2(NC(=O)c3cc4c(Cl)c(Cl)ccc4n3C)CCOC2)cc1)c1nnn[nH]1 (racemic) | 1 to 1000 nM |

Could you report IC50 for every entry in the following list?
1. COc1cc2c(cc(C(=O)NC3(c4ccc(C(=O)O)cc4Cl)COC3)n2C)c(Cl)c1Cl
2. COc1cc(CC(=O)O)ccc1C1(NC(=O)c2cc3c(Cl)c(Cl)ccc3n2C)COC1

Output line:
1 to 1000 nM
5000 to 10000 nM

Cited source: patent US11634412B2
